The measured values listed here are drawn from paper PMC5840343.

biological target: thrombin (Homo sapiens, UniProt P00734, S568A); construct: the protease domain composed of the A and B chains; made in house; test: Stopped-flow rapid kinetics of FPR binding to the active site; details: from rate constants, read-out: Kd,app (calculated from eq. 3)
pKd: −log10 of the molar value.

{"compound": "N=C(N)NCCC[C@H](NC(=O)[C@@H]1CCCN1C(=O)[C@H](N)Cc1ccccc1)C(=O)Nc1ccc([N+](=O)[O-])cc1 [FPR, H-D-Phe-Pro-Arg-p-nitroanilide]", "pKd": 6.54}

----------
target: meizothrombin (Homo sapiens, UniProt P00734, S568A); construct: Cleavage at R320 retains the modular structure of prothrombin and generates the active intermediate meizothrombin; Cleavage at R320 generates the active intermediate meizothrombin that retains the modular organization of prothrombin; made in house; test: Stopped-flow rapid kinetics of FPR binding to the active site; settings: from rate constants, read-out: Kd,app (calculated from eq. 3)
measured.metric: Kd (nM)

{"molecule": "N=C(N)NCCC[C@H](NC(=O)[C@@H]1CCCN1C(=O)[C@H](N)Cc1ccccc1)C(=O)Nc1ccc([N+](=O)[O-])cc1 [FPR, H-D-Phe-Pro-Arg-p-nitroanilide]", "number": 440}
